Assay System: human TLR9 (Homo sapiens)
Sequence (Q9NR96 26-1032): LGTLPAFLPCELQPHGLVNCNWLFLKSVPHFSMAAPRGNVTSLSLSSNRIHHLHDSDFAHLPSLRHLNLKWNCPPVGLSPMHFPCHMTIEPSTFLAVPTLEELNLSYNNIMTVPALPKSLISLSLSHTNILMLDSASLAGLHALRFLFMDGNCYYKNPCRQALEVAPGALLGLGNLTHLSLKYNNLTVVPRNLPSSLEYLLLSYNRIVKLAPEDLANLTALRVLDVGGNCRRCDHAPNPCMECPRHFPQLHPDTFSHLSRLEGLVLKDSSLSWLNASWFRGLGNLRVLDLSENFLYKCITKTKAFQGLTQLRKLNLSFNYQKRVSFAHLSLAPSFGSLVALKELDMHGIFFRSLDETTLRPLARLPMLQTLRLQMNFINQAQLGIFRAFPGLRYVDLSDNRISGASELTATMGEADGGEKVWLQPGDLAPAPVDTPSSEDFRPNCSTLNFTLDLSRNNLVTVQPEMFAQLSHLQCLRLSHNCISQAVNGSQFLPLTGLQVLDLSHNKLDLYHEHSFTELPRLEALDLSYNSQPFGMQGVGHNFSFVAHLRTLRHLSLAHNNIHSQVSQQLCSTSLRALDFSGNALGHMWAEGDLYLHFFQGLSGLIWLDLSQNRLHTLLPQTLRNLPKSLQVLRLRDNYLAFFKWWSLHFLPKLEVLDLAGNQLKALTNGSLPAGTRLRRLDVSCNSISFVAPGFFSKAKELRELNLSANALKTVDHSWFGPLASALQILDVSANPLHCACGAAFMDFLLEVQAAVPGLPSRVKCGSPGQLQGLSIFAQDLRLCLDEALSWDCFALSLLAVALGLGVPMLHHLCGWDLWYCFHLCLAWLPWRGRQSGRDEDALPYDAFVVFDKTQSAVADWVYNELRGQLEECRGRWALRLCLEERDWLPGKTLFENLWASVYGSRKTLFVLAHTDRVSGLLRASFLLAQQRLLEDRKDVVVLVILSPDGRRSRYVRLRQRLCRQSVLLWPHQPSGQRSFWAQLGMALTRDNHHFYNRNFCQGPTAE
Assay Protocol: HEK293-Blue-hTLR-9 cells assay (SEAP reporter, ODN2006 stimulation)
Condition Notes: HEK293-Blue-hTLR9 cells, ODN2006 ligand, 20 hrs incubation
pIC50: −log10 of the molar value.
Result Type: pIC50

>>> reported_value("N#Cc1ccc(N2CC(CN3CCC(N)CC3)C3(CC3)C2)c2nccnc12 (stereo not shown) [Example 68]")
7.03
>>> reported_value("N#Cc1ccc(N2C[C@H](CN3CCC(N4CCNCC4)CC3)[C@@H](C(F)(F)F)C2)c2cccnc12")
6.68
>>> reported_value("N#Cc1ccc(N2C[C@H](CN3CCC4(CCNCC4)C3)[C@@H](C(F)(F)F)C2)c2cccnc12")
6.80
>>> reported_value("N#Cc1ccc(N2C[C@H](CN3CCC(CN)CC3)[C@@H](C(F)(F)F)C2)c2nccnc12")
6.49
>>> reported_value("N#Cc1ccc(N2C[C@H](CN3CCC4(CCCNC4)CC3)[C@@H](C(F)(F)F)C2)c2nccnc12")
6.65
>>> reported_value("N#Cc1ccc(N2CC(CN3C4CCC3CC(N)C4)C3(CC3)C2)c2nccnc12 (stereo not shown)")
7.12
>>> reported_value("N#Cc1ccc(N2C[C@H](CN3CCC4(CCNCC4)CC3)[C@@H](C(F)(F)F)C2)c2nccnc12")
6.97
>>> reported_value("N#Cc1ccc(N2C[C@H](CN3CCC4(CCNCC4)C3)[C@@H](C(F)(F)F)C2)c2nccnc12")
6.56
>>> reported_value("N#Cc1ccc(N2C[C@H](CN3CCC4(CCNC4)C3)[C@@H](C(F)(F)F)C2)c2nccnc12 (stereo partly shown)")
6.86
>>> reported_value("FC(F)(F)c1ccc(N2CC(CN3CCNCC3)C3(CC3)C2)c2nccnc12 (stereo not shown)")
5.25
>>> reported_value("C[C@@H]1CN(c2ccc(C(F)(F)F)c3nccnc23)C[C@H]1CN1CCC2(CCNCC2)CC1 (relative stereo)")
6.53
>>> reported_value("CC[C@@H]1CN(c2ccc(C#N)c3ncccc23)C[C@H]1CN1CCC2(CCNCC2)CC1 (relative stereo)")
7.49
>>> reported_value("CN(C)[C@@H]1CCN(C[C@H]2CN(c3ccc(C#N)c4nccnc34)C[C@@H]2C(F)(F)F)C1")
5.70
>>> reported_value("N#Cc1ccc(N2CC(CN3C[C@H]4CNC[C@H]4C3)C3(CC3)C2)c2nccnc12 (stereo partly shown)")
7.01
>>> reported_value("CC(C)[C@@H]1CN(c2ccc(C#N)c3ncccc23)C[C@H]1CN1CCC2(CCNC2)C1 (relative stereo)")
7.04
>>> reported_value("C[C@H]1CN(c2ccc(C#N)c3ncccc23)C[C@@H]1CN1CCC2(CCNC2)C1 (stereo partly shown)")
7.30
>>> reported_value("N#Cc1ccc(N2CC(CN3CCNCC3)C3(CC3)C2)c2nccnc12 (stereo not shown)")
5.73
>>> reported_value("N#Cc1ccc(N2C[C@H](CN3CC4(CC(N)C4)C3)[C@@H](C(F)(F)F)C2)c2nccnc12")
6.75
>>> reported_value("N#Cc1ccc(N2C[C@H](CN3CCC4(CCCNC4)C3)[C@@H](C(F)(F)F)C2)c2cccnc12 (stereo partly shown)")
6.87
>>> reported_value("C[C@@H]1CN(c2ccc(C(F)(F)F)c3nccnc23)C[C@H]1CNC1CCCNCC1 (stereo partly shown)")
6.16
>>> reported_value("CC1(CN)CCCN(C[C@H]2CN(c3ccc(C#N)c4nccnc34)C[C@@H]2C(F)(F)F)C1 (stereo partly shown)")
6.12
>>> reported_value("C[C@H]1CN(c2ccc(C#N)c3ncccc23)C[C@@H]1CN1CCC2(CCNCC2)CC1")
7.35
>>> reported_value("N#Cc1ccc(N2CC(CN3CCC(N4CCCCC4)CC3)C3(CC3)C2)c2nccnc12 (stereo not shown)")
6.90
>>> reported_value("N#Cc1ccc(N2C[C@H](CN3CCC(CCN)CC3)[C@@H](C(F)(F)F)C2)c2nccnc12")
6.61
>>> reported_value("N#Cc1ccc(N2CC(CN3CCC4(CCNC4)C3)C3(CC3)C2)c2cccnc12 (stereo not shown)")
7.21
>>> reported_value("C[C@H]1CN(c2ccc(C#N)c3nccnc23)C[C@@H]1CN1CCC2(CCNCC2)CC1")
6.87
>>> reported_value("FC(F)(F)c1ccc(N2CC(CN3C[C@H]4CNC[C@H]4C3)C3(CC3)C2)c2nccnc12 (stereo partly shown)")
5.92
>>> reported_value("N#Cc1ccc(N2C[C@H](CN3CCC4(CCNC4)CC3)[C@@H](C(F)(F)F)C2)c2nccnc12")
6.82
>>> reported_value("N#Cc1ccc(N2C[C@H](CN3CCNCC3)[C@@H](C(F)(F)F)C2)c2nccnc12")
5.57
>>> reported_value("N#Cc1ccc(N2CC(CN3CCC(N)CC3)C3(CC3)C2)c2nccnc12 (single isomer, unassigned) [Example 68A]")
7.15
>>> reported_value("N#Cc1ccc(N2C[C@H](CN3CCC4(CCCNC4)CC3)[C@@H](C(F)(F)F)C2)c2cccnc12")
6.76
